System: Ovarian Cancer cell lines
testDetails: NCI in vitro anticancer screen (SRB), ovarian cancer subpanel; note: test concentration or dose not given here
assayConditions: 48 hours exposure; average percent growth over the cell lines
readoutLabel: Activity (Average PG for highest dose tested) Ovarian Cancer (%)
Give just the number in %; leave the unit off.

Incoming: # returns recorded Activity (Average PG for highest dose tested) Ovarian Cancer (system: Ovarian Cancer cell lines) for COC(=O)c1nc(-c2ccc3c(n2)C(=O)C(N)=CC3=O)c2[nH]c3ccccc3c2c1C [Compound 55, lavendamycin methyl ester, reference compound]
Outgoing: −43.5

Let us move to another entry and its Activity (Average PG for highest dose tested) Ovarian Cancer.
Incoming: # returns recorded Activity (Average PG for highest dose tested) Ovarian Cancer (system: Ovarian Cancer cell lines) for CCCCCCCCOC(=O)c1cc2c([nH]c3ccccc32)c(-c2ccc3c(n2)C(=O)C(NC=O)=CC3=O)n1
Outgoing: −57.3

----------
System: normal rat kidney epithelial (NRKE) cells
readoutLabel: CC50 (µM)
Give just the number in µM; leave the unit off.

Incoming: # returns recorded CC50 (system: normal rat kidney epithelial (NRKE) cells) for CC(=O)NC1=CC(=O)c2ccc(-c3nc(C(N)=O)cc4c3[nH]c3ccccc34)nc2C1=O
Outgoing: 0.9

----------
Tested on: Ovarian Cancer cell lines
testDetails: NCI in vitro anticancer screen (SRB), ovarian cancer subpanel; note: test concentration or dose not given here
assayConditions: 48 hours exposure; average percent growth over the cell lines
readoutLabel: Activity (Average PG for highest dose tested) Ovarian Cancer (%)
Give just the number in %; leave the unit off.

Incoming: # Activity (Average PG for highest dose tested) Ovarian Cancer lookup, item CC(=O)NC1=CC(=O)c2ccc(-c3nc(C(N)=O)cc4c3[nH]c3ccccc34)nc2C1=O
Outgoing: −55.5

Incoming: # Activity (Average PG for highest dose tested) Ovarian Cancer lookup, item CCCC(=O)NC1=CC(=O)c2ccc(C=O)nc2C1=O
Outgoing: −63.2

Let us move to another entry and its Activity (Average PG for highest dose tested) Ovarian Cancer.
Incoming: # Activity (Average PG for highest dose tested) Ovarian Cancer lookup, item CC(=O)NC1=CC(=O)c2ccc(-c3nc(C(=O)O)cc4c3[nH]c3ccccc34)nc2C1=O
Outgoing: −62.7

----------
Tested on: H/1.2 = ras^H Transformed NRKE Cells
testDetails: cells
assayConditions: Rattus norvegicus, read-out: LC50 H/1.2
readoutLabel: CC50 (µM)
Give just the number in µM; leave the unit off.

Incoming: # CC50 lookup, item COC(=O)c1nc(-c2ccc3c(n2)C(=O)C(NC(C)=O)=CC3=O)c2[nH]c3ccccc3c2c1C [Compound 1, 7-N-Acetyllavendamycin Methyl Ester]
Outgoing: 0.7

***
Incoming: # CC50 lookup, item CC(=O)NC1=CC(=O)c2ccc(C=O)nc2C1=O [Compound 23, 7-ACETAMIDO-2-FORMYLQUINOLINE-5,8-DIONE]
Outgoing: 5.5

Incoming: # CC50 lookup, item CCCC(=O)NC1=CC(=O)c2ccc(C=O)nc2C1=O [Compound 26, 7-BUTYRAMIDO-2-FORMYLQUINOLINE-5,8-DIONE]
Outgoing: 3.3

----------
CC50 listing for selected compounds.
Tested on: H/1.2 = ras^H Transformed NRKE Cells
Give just the number in µM; leave the unit off.

Incoming: # CC50 lookup, item CC(=O)NC1=CC(=O)c2ccc(-c3nc(C(N)=O)cc4c3[nH]c3ccccc34)nc2C1=O
Outgoing: 0.23

Let us move to another entry and its CC50.
Incoming: # CC50 lookup, item CCCCCCCCOC(=O)c1cc2c([nH]c3ccccc32)c(-c2ccc3c(n2)C(=O)C(NC(C)=O)=CC3=O)n1
Outgoing: 7.6
